These entries and their values trace back to PubChem BioAssay (NCI).

Listed next: entries and their corresponding TGI.
System: SNB-75 CNS
MEASUREMENT DESCRIPTION: NCI tumour cell line growth inhibition, 48 h
Numbers only here, please. The scale is µM.

- COMPOUND: "C=CCN1CCC23c4c5ccc(O)c4OC2C(=NN=C2CCC4(O)C6Cc7ccc(O)c8c7C4(CCN6CC=C)C2O8)CCC3(O)C1C5 (stereo not given)"
  SYSTEM NAME: "SNB-75 CNS"
  TGI [µM]: 34.2
- COMPOUND: "COc1cc2c3c(c1OC)-c1cc4c(cc1CC3(C#N)N(C(=O)c1ccccc1)CC2)OCO4 (stereo not given)"
  SYSTEM NAME: "SNB-75 CNS"
  TGI [µM]: 28.1

Now look at this entry.
Task item: I have this compound here, NCCc1cc(O)c(O)cc1O , and I need its recorded TGI.
Reply: 70.6

###

Test system: MCF7 breast
MEASUREMENT DESCRIPTION: NCI tumour cell line growth inhibition, 48 h
Listed next: entries and their corresponding TGI.

- COMPOUND: "CS(=O)(=O)Nc1cc(-c2ccc3ncnc(Nc4c(Cl)ccc5c4OCO5)c3c2)cnc1Cl"
  READOUT: "TGI"
  RECORDED VALUE: "1.47 µM"
- COMPOUND: "CC1(C)OC2C(O)C(CO)OC2(C(F)F)O1 (stereo unspecified)"
  READOUT: "TGI"
  RECORDED VALUE: "> 100 µM"
- COMPOUND: "N#Cc1c(-c2ccc(Cl)cc2)c(C#N)c(=O)n(NS(=O)(=O)c2ccccc2)c1O"
  READOUT: "TGI"
  RECORDED VALUE: "42.9 µM"
- COMPOUND: "CC(=O)N(C)CCc1c[nH]c2ccccc12"
  READOUT: "TGI"
  RECORDED VALUE: "> 100 µM"

Task item: I have this compound here, CCc1c(Cl)c(C)cc(O)c1Cl , and I need its recorded TGI.
Reply: > 100 µM

Task item: Do the same for COC(=O)C1=CN(CC2=CC(=O)C(C)=CC2=O)C=C(C(=O)OC)C1c1cccc(OC)c1 please
Reply: > 100 µM

###

Listed next: entries and their corresponding TGI.
Test system: HT29 colon
MEASUREMENT DESCRIPTION: NCI tumour cell line growth inhibition, 48 h
Numbers only here, please. The scale is µM.

- COMPOUND: "Cc1c2cccc-2c(OCCO)cc2c3ccccc3n(C)c12"
  READOUT: "TGI"
  RECORDED VALUE: 18.3

Now look at this entry.
Task item: I have this compound here, CC(C)C(C/C=C1\CC(CO)(COC(=O)C(C)(C)C)OC1=O)C(C)C (stereo not given) , and I need its recorded TGI.
Reply: 49.6

###

System: LOX IMVI melanoma
MEASUREMENT DESCRIPTION: NCI tumour cell line growth inhibition, 48 h
Listed next: entries and their corresponding TGI.

- COMPOUND: "CSc1nc(NC2OC(COC(C)=O)C(OC(C)=O)C(OC(C)=O)C2OC(C)=O)c(N=CC=Nc2c(NC3OC(COC(C)=O)C(OC(C)=O)C(OC(C)=O)C3OC(C)=O)nc(SC)n(C)c2=O)c(=O)n1C (stereo not drawn)"
  TGI: "> 100 µM"

Task item: Find the measured TGI: item c1ccc2c(c1)SCCC2NC1=NCCO1 (stereo not drawn) , target or system LOX IMVI melanoma.
Reply: > 100 µM

Task item: Do the same for Cc1ccc(Nc2oc(-c3ccccc3)nc2[P+](c2ccccc2)(c2ccccc2)c2ccccc2)cc1 please
Reply: 2.11 µM

Task item: Do the same for Cc1ncc([N+](=O)[O-])n1CCNCCCCn1ccnc1[N+](=O)[O-] please
Reply: > 100 µM

Task item: Do the same for O=[N+]([O-])c1ccc(CI)cc1 please
Reply: 2.9 µM

Task item: Do the same for COc1ccc(Cn2c(N)c(S(=O)(=O)c3ccc(Cl)cc3)c3nc(C#N)c(C#N)nc32)cc1 please
Reply: 38.3 µM

Task item: Do the same for COc1ccccc1Nc1ncc(-c2ccccc2)o1 please
Reply: > 25 µM

Task item: Do the same for O=C(N(O)c1ccccc1Cl)C(O)(c1ccccc1)c1ccccc1 please
Reply: > 100 µM
